From: ChEMBL document CHEMBL1151543

- ASSAY: Oral bioavailability in rat
- Format: ADME, organism-based
- CONDITION_SUMMARY: in vivo
PROPERTY_LABEL: bioavailability (%)
Give the quantity in %, number only.

>>> obs_value("CC(=O)Oc1cc(C)cc(C)c1C(C)(C)CC(=O)OCC(CO)OCn1cnc2c(O)nc(N)nc21 (stereo not drawn)")
15.6
>>> obs_value("Cc1cc(C)c(C(C)(C)CC(=O)OCC(CO)OCn2cnc3c(O)nc(N)nc32)c(OCc2ccccc2)c1 (stereo not drawn)")
0

# context switch: different compound, same bioavailability
State its bioavailability for this compound: `Nc1nc(O)c2ncn(COC(CO)CO)c2n1` 3.6
